Biological target: T1, NLpoly11S
T1 chain: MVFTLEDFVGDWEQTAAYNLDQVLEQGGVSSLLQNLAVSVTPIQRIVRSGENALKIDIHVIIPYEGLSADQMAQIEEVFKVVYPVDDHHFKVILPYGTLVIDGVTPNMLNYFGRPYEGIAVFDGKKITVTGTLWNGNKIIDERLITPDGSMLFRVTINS
Assay: luminescence complementation titration, one-site specific binding fit
For each of the binders below, state its Bmax.
One number for each entry.

stdin: Please supply the value of reported Bmax for the item VTGYRLFKEIL (modifications not checked) [array2.34]
stdout: 21900

stdin: Please supply the value of reported Bmax for the item VEGYRLFQKAS (modifications not checked) [array2.65]
stdout: 10600

stdin: Please supply the value of reported Bmax for the item VEGYRLFKKAL (modifications not checked) [array2.83]
stdout: 20800

stdin: Please supply the value of reported Bmax for the item VTGYRLFQEIL (modifications not checked) [array2.43]
stdout: 9410

stdin: Please supply the value of reported Bmax for the item VTGYRLFEQIS (modifications not checked) [array2.22]
stdout: 121000

stdin: Please supply the value of reported Bmax for the item VTGYRLFEKES (modifications not checked) [array2.21]
stdout: 8620

stdin: Please supply the value of reported Bmax for the item VTGYRLFKEEL (modifications not checked) [array2.36]
stdout: 1720

stdin: Please supply the value of reported Bmax for the item VEGYRLFQKAL (modifications not checked) [array2.92]
stdout: 12300

Answer for every listed entry: what is its Bmax? The entries follow.
1. VTGYRLFKEES (modifications not checked) [array2.9]
2. VTGYRLFKQAS (modifications not checked) [array2.5]
3. VTGYRLFQKEL (modifications not checked) [array2.39]
4. VEGYRLFKKIL (modifications not checked) [array2.82]
5. VTGYRLFKKES (modifications not checked) [array2.3]
6. VEGYRLFKEEL (modifications not checked) [array2.90]

stdout:
1. 1450
2. 31000
3. 33100
4. 43400
5. 56000
6. 12200

Answer for every listed entry: what is its Bmax? The entries follow.
1. VTGYRLFKEAL (modifications not checked) [array2.35]
2. VEGYRLFKKIS (modifications not checked) [array2.55]

stdout:
5550
42400
